- experiment-summary: The drug is tested on Eggerthella lenta strain: ATCC25559 for biotransformation. The drug concentrations were measured before and after a 12-h incubation by liquid-chromatography-coupled mass spectrometry (LC–MS)
- condition-context: 2 µM
test-readout: Bacterial Biotransformation

{"columns": ["molecule", "result"],
 "data": [
  ["CCOc1ccccc1OCCN[C@H](C)Cc1ccc(OC)c(S(N)(=O)=O)c1.Cl [TAMSULOSIN HYDROCHLORIDE]", "Compound NOT metabolized"],
  ["COc1ccc(C(CN(C)C)C2(O)CCCCC2)cc1 (stereo not given) [VENLAFAXINE]", "Compound NOT metabolized"],
  ["Cc1ccc(-c2nc3ccc(C)cn3c2CC(=O)N(C)C)cc1 [ZOLPIDEM]", "Compound NOT metabolized"],
  ["Cc1cn([C@H]2C[C@H](N=[N+]=[N-])[C@@H](CO)O2)c(=O)[nH]c1=O [ZIDOVUDINE]", "Compound NOT metabolized"]
]}

// switching to the query molecule
[ask] Please look up its Bacterial Biotransformation: COc1ccccc1N1CCN(CC(O)COc2cccc3ccccc23)CC1 (stereo not given) [NAFTOPIDIL]
[reply] Compound NOT metabolized

###

- condition-context: bacteroides thetaiotaomicron, 12 h, 2 µM
- Description: The drug is tested on Bacteroides thetaiotaomicron strain: VPI-5482 for biotransformation. The drug concentrations were measured before and after a 12-h incubation by liquid-chromatography-coupled mass spectrometry (LC–MS)
test-readout: Bacterial Biotransformation

Would you please look over these solved cases?
{"columns": ["molecule", "result"],
 "data": [
  ["CCc1nn(CCCN2CCN(c3cccc(Cl)c3)CC2)c(=O)n1CCOc1ccccc1", "Compound NOT metabolized"],
  ["CN(C)C(=O)Oc1cccc([N+](C)(C)C)c1.[Br-] [NEOSTIGMINE BROMIDE]", "Compound metabolized"],
  ["CC#CCn1c(N2CCC[C@@H](N)C2)nc2c1c(=O)n(Cc1nc(C)c3ccccc3n1)c(=O)n2C", "Compound metabolized"],
  ["CN(C(=O)CN(CCO)CC(=O)N(C)C(C)(C)Cc1ccccc1)C(C)(C)Cc1ccccc1", "Compound NOT metabolized"],
  ["CN1C[C@H](C(=O)N[C@]2(C)O[C@@]3(O)[C@@H]4CCCN4C(=O)[C@H](Cc4ccccc4)N3C2=O)C=C2c3cccc4[nH]cc(c34)C[C@H]21.CN1C[C@H](C(=O)N[C@]2(C)O[C@@]3(O)[C@@H]4CCCN4C(=O)[C@H](Cc4ccccc4)N3C2=O)C=C2c3cccc4[nH]cc(c34)C[C@H]21.O=C(O)C(O)C(O)C(=O)O [ERGOTAMINE TARTRATE]", "Compound metabolized"],
  ["CCN(CC)CCOC(=O)C1(C2CCCCC2)CCCCC1", "Compound NOT metabolized"]
]}

[ask] Which Bacterial Biotransformation reading was recorded for the molecule COC(=O)[C@H](c1ccccc1Cl)N1CCc2sccc2C1.O=S(=O)(O)O [CLOPIDOGREL BISULFATE] ?
[reply] Compound metabolized

[ask] For the molecule shown here, CNS(=O)(=O)Cc1ccc2[nH]cc(CCN(C)C)c2c1.O=C(O)CCC(=O)O [SUMATRIPTAN SUCCINATE] , give the reported Bacterial Biotransformation.
[reply] Compound metabolized

[ask] Could you share which Bacterial Biotransformation value was measured for COc1cc2nc(N3CCN(C(=O)C4CCCO4)CC3)nc(N)c2cc1OC (stereo unspecified) ?
[reply] Compound NOT metabolized

[ask] What Bacterial Biotransformation value was documented for this molecule, "COc1ccc(Cc2nccc3cc(OC)c(OC)cc23)cc1OC" ?
[reply] Compound NOT metabolized

[ask] What does the data say about its Bacterial Biotransformation? Entry: CC(=O)Nc1ccc(OC(C)=O)cc1 [DIACETAMATE]
[reply] Compound metabolized

[ask] Value lookup for Bacterial Biotransformation; key = "Cc1ccnc2c1NC(=O)c1cccnc1N2C1CC1"
[reply] Compound NOT metabolized

[ask] Return reported Bacterial Biotransformation; argument: "CN(C)CCC=C1c2ccccc2C=Cc2ccccc21"
[reply] Compound NOT metabolized

[ask] Field request: Bacterial Biotransformation | item: "C#C[C@]1(O)CC[C@H]2[C@@H]3CCC4=Cc5oncc5C[C@]4(C)[C@H]3CC[C@@]21C"
[reply] Compound metabolized

[ask] Consider the molecule CC(C)[C@H]1CC[C@H](C(=O)N[C@H](Cc2ccccc2)C(=O)O)CC1 [NATEGLINIDE] and give its measured Bacterial Biotransformation.
[reply] Compound NOT metabolized

[ask] Entry CN(C)CCC=C1c2ccccc2COc2ccccc21 [DOXEPIN] : reported Bacterial Biotransformation = ?
[reply] Compound NOT metabolized

Reference source for all entries: ChEMBL document CHEMBL5303573
